These entries and their values trace back to patent US11414450B1.

Tested on: E. coli isogenic strain nmpA
Assay overview: MIC broth microdilution, E. coli isogenic strain nmpA
Type: cell-based
Conditions used: Table 2
Measure: Geometric Mean MIC values, E. coli isogenic strains, nmpA

{"Molecule": "NCC1OC(OC2C(CO)OC(OC3C(O)C(N)CC(N)C3OC3OC(CN)C(O)C(F)C3O)C2O)C(N)C(O)C1O (centres unmarked) [drawing 867]", "Reported value": ">64 µg/mL"}
{"Molecule": "CC(N)C1CCC(N)C(OC2C(N)CC(N)C(O)C2OC2OC(CO)C(OC3OC(CN)C(O)C(O)C3N)C2O)O1 (centres unmarked) [drawing 858]", "Reported value": ">64 µg/mL"}
{"Molecule": "NCC1OC(OC2C(CO)OC(OC3C(O)C(N)CC(N)C3OC3OC(CN)C(F)(F)C(O)C3N)C2O)C(N)C(O)C1O (centres unmarked)", "Reported value": "64 µg/mL"}
{"Molecule": "CCC(N)C1CCC(N)C(OC2C(N)CC(N)C(O)C2OC2OC(CO)C(OC3OC(CN)C(O)C(O)C3N)C2O)O1 (centres unmarked) [drawing 860]", "Reported value": ">64 µg/mL"}
{"Molecule": "CC(N)C1CCC(N)C(OC2C(N)CC(N)C(O)C2OC2OC(CO)C(OC3OC(CN)C(O)C(O)C3N)C2O)O1 (centres unmarked) [drawing 857]", "Reported value": ">64 µg/mL"}
{"Molecule": "CCC(N)C1CCC(N)C(OC2C(N)CC(N)C(O)C2OC2OC(CO)C(OC3OC(CN)C(O)C(O)C3N)C2O)O1 (centres unmarked) [drawing 861]", "Reported value": ">64 µg/mL"}
{"Molecule": "NCC1OC(OC2C(CO)OC(OC3C(O)C(N)CC(N)C3OC3OC(CN)C(O)C(F)C3N)C2O)C(N)C(O)C1O (centres unmarked) [drawing 866]", "Reported value": ">64 µg/mL"}
{"Molecule": "NCC1OC(OC2C(CO)OC(OC3C(O)C(N)CC(N)C3OC3OC(CN)C(O)C(F)C3N)C2O)C(N)C(O)C1O (centres unmarked) [drawing 869]", "Reported value": ">64 µg/mL"}

* * *

System: E. coli isogenic strain armA
Assay overview: MIC broth microdilution, E. coli isogenic strain armA
Assay type: cell-based
Conditions used: Table 2
Measure: Geometric Mean MIC values, E. coli isogenic strains, armA (µg/mL)

{"Compound": "CC(N)C1CCC(N)C(OC2C(N)CC(N)C(O)C2OC2OC(CO)C(OC3OC(CN)C(O)C(O)C3N)C2O)O1 (centres unmarked) [drawing 857]", "Endpoint unit": "µg/mL", "Reported value": 1.5}
{"Compound": "NCC1OC(OC2C(N)CC(N)C(O)C2OC2OC(CO)C(OC3OC(CN)C(O)C(O)C3N)C2O)C(N)CC1O (centres unmarked) [drawing 864, reference compound]", "Endpoint unit": "µg/mL", "Reported value": 0.6}
{"Compound": "CC(N)C1CCC(N)C(OC2C(N)CC(N)C(O)C2OC2OC(CO)C(OC3OC(CN)C(O)C(O)C3N)C2O)O1 (centres unmarked) [drawing 858]", "Endpoint unit": "µg/mL", "Reported value": 1.4}
{"Compound": "NCC1OC(OC2C(CO)OC(OC3C(O)C(N)CC(N)C3OC3OC(CN)C(O)C(F)C3N)C2O)C(N)C(O)C1O (centres unmarked) [drawing 866]", "Endpoint unit": "µg/mL", "Reported value": 1.4}
{"Compound": "NCC1OC(OC2C(CO)OC(OC3C(O)C(N)CC(N)C3OC3OC(CN)C(O)C(F)C3N)C2O)C(N)C(O)C1O (centres unmarked) [drawing 868]", "Endpoint unit": "µg/mL", "Reported value": 64}
{"Compound": "NC[C@@H]1O[C@H](O[C@H]2[C@@H](O)[C@H](O[C@@H]3[C@@H](O)[C@H](N)C[C@H](N)[C@H]3O[C@H]3O[C@H](CN)[C@@H](O)[C@H](O)[C@H]3N)O[C@@H]2CO)[C@H](N)[C@@H](O)[C@@H]1O [NEO, neomycin B, reference compound]", "Endpoint unit": "µg/mL", "Reported value": 0.75}
{"Compound": "NCC1OC(OC2C(CO)OC(OC3C(O)C(N)CC(N)C3OC3OC(CN)C(O)C(F)C3N)C2O)C(N)C(O)C1O (centres unmarked) [drawing 869]", "Endpoint unit": "µg/mL", "Reported value": 4}
{"Compound": "NCC1CCC(N)C(OC2C(N)CC(N)C(O)C2OC2OC(CO)C(OC3OC(CN)C(O)C(O)C3N)C2O)O1 (centres unmarked) [drawing 856, reference compound]", "Endpoint unit": "µg/mL", "Reported value": 0.74}
{"Compound": "NCC1OC(OC2C(CO)OC(OC3C(O)C(N)CC(N)C3OC3OC(C4(N)CC4)CCC3N)C2O)C(N)C(O)C1O (centres unmarked) [drawing 859]", "Endpoint unit": "µg/mL", "Reported value": 4}
{"Compound": "NCC1OC(OC2C(CO)OC(OC3C(O)C(N)CC(N)C3OC3OC(CN)C(O)C(F)(F)C3N)C2O)C(N)C(O)C1O (centres unmarked) [drawing 870]", "Endpoint unit": "µg/mL", "Reported value": 32}
{"Compound": "NCC1OC(OC2C(CO)OC(OC3C(O)C(N)CC(N)C3OC3OC(CN)C(F)(F)C(O)C3N)C2O)C(N)C(O)C1O (centres unmarked)", "Endpoint unit": "µg/mL", "Reported value": 4}
{"Compound": "CCC(N)C1CCC(N)C(OC2C(N)CC(N)C(O)C2OC2OC(CO)C(OC3OC(CN)C(O)C(O)C3N)C2O)O1 (centres unmarked) [drawing 860]", "Endpoint unit": "µg/mL", "Reported value": 3.2}
{"Compound": "CCC(N)C1CCC(N)C(OC2C(N)CC(N)C(O)C2OC2OC(CO)C(OC3OC(CN)C(O)C(O)C3N)C2O)O1 (centres unmarked) [drawing 861]", "Endpoint unit": "µg/mL", "Reported value": 5.7}
{"Compound": "NCC1OC(OC2C(CO)OC(OC3C(O)C(N)CC(N)C3OC3OC(CN)C(O)C(F)C3O)C2O)C(N)C(O)C1O (centres unmarked) [drawing 867]", "Endpoint unit": "µg/mL", "Reported value": 2.8}

* * *

Test system: E. coli isogenic strain empty vector
Assay overview: MIC broth microdilution, E. coli isogenic strain, empty vector
Assay type: cell-based
Conditions used: Table 2
Readings of Geometric Mean MIC values, E. coli isogenic strains, empty vector for the listed compounds
Measure: Geometric Mean MIC values, E. coli isogenic strains, empty vector (µg/mL)

{"Compound": "NCC1OC(OC2C(CO)OC(OC3C(O)C(N)CC(N)C3OC3OC(CN)C(O)C(F)(F)C3N)C2O)C(N)C(O)C1O (centres unmarked) [drawing 870]", "Measured target": "E. coli isogenic strain empty vector", "Reported value": 4}
{"Compound": "CC(N)C1CCC(N)C(OC2C(N)CC(N)C(O)C2OC2OC(CO)C(OC3OC(CN)C(O)C(O)C3N)C2O)O1 (centres unmarked) [drawing 857]", "Measured target": "E. coli isogenic strain empty vector", "Reported value": 0.84}
{"Compound": "NCC1OC(OC2C(CO)OC(OC3C(O)C(N)CC(N)C3OC3OC(C4(N)CC4)CCC3N)C2O)C(N)C(O)C1O (centres unmarked) [drawing 859]", "Measured target": "E. coli isogenic strain empty vector", "Reported value": 0.5}
{"Compound": "CCC(N)C1CCC(N)C(OC2C(N)CC(N)C(O)C2OC2OC(CO)C(OC3OC(CN)C(O)C(O)C3N)C2O)O1 (centres unmarked) [drawing 861]", "Measured target": "E. coli isogenic strain empty vector", "Reported value": 1}
{"Compound": "NCC1OC(OC2C(CO)OC(OC3C(O)C(N)CC(N)C3OC3OC(CN)C(O)C(F)C3N)C2O)C(N)C(O)C1O (centres unmarked) [drawing 868]", "Measured target": "E. coli isogenic strain empty vector", "Reported value": 16}
{"Compound": "NCC1OC(OC2C(CO)OC(OC3C(O)C(N)CC(N)C3OC3OC(CN)C(O)C(F)C3N)C2O)C(N)C(O)C1O (centres unmarked) [drawing 866]", "Measured target": "E. coli isogenic strain empty vector", "Reported value": 0.63}
{"Compound": "CCC(N)C1CCC(N)C(OC2C(N)CC(N)C(O)C2OC2OC(CO)C(OC3OC(CN)C(O)C(O)C3N)C2O)O1 (centres unmarked) [drawing 860]", "Measured target": "E. coli isogenic strain empty vector", "Reported value": 1}
{"Compound": "NCC1OC(OC2C(CO)OC(OC3C(O)C(N)CC(N)C3OC3OC(CN)C(O)C(F)C3O)C2O)C(N)C(O)C1O (centres unmarked) [drawing 867]", "Measured target": "E. coli isogenic strain empty vector", "Reported value": 2}

* * *

Listed compounds paired with reported Geometric Mean MIC values, P. aeruginosa efflux parent
System: P. aeruginosa efflux parent
Assay overview: MIC broth microdilution, P. aeruginosa efflux parent strain
Assay type: cell-based
Conditions used: Table 1; geometric mean
Measure: Geometric Mean MIC values, P. aeruginosa efflux parent (µg/mL)

{"Compound": "NCC1CCC(N)C(OC2C(N)CC(N)C(O)C2OC2OC(CO)C(OC3OC(CN)C(O)C(O)C3N)C2O)O1 (stereo not shown) [drawing 848]", "Endpoint unit": "µg/mL", "Reported value": 0.77}
{"Compound": "CCC(N)C1CCC(N)C(OC2C(N)CC(N)C(O)C2OC2OC(CO)C(OC3OC(CN)C(O)C(O)C3N)C2O)O1 (stereo not shown) [drawing 852]", "Endpoint unit": "µg/mL", "Reported value": 2}
{"Compound": "NCC1OC(OC2C(CO)OC(OC3C(O)C(N)CC(N)C3OC3OC(CN)C(O)C(F)C3N)C2O)C(N)C(O)C1O (stereo not shown) [drawing 853]", "Endpoint unit": "µg/mL", "Reported value": 2}
{"Compound": "NCC1OC(OC2C(CO)OC(OC3C(O)C(N)CC(N)C3OC3OC(CN)C(O)C(F)(F)C3N)C2O)C(N)C(O)C1O (stereo not shown) [drawing 854]", "Endpoint unit": "µg/mL", "Reported value": 8}
